- ASSAY NAME: soluble on expression in E. coli; label from the status in PepcDB or PDB records
QUANTITY MEASURED: soluble on expression in E. coli

MGSDKIHHHHHHQEGRSDPLEGFNRTMFNFNYDVLDPYVVRPAAVAWRDYVPTPARNGLGNFFNNLEEPATMVNYFVEGKPYKAMIHFNRFFLNTLLGMGGLIDVASMANPKLAKEESRRFGSTLGNYGVGYGPYVVLPGYGSVTPREDGGGVADTLYPMLSYLTFWMSAGKWAIEGLETRAQLLDSDGLLRNSSDPYLMIREAYFQRHDFLASDGQIAPQQNPNAAAIEDSLDEIDSAK	not soluble
MRINKPFSDDSNTVVFVSSKTYGVKEEAAHNPNVEFGVVLPTDFPAFNRALVQFLKRKKTKLNINLDSLIELYKKNENSGCFHTAIKTVITSVTFCETTPFTMKTKPEKNVEVAVQCAVEYHNLVKEYET	not soluble
